# Test system: Mus musculus
# protocolNotes: In vivo inhibition of Cdc7 in tumor of NCR/nude mouse xenografted with human HCT116 cells assessed as remaining Ser53 phosphorylated MCM2 level at 100 mg/kg, po measured at 16 hrs relative to control
# Type: functional, HCT-116
propertyLabel: Remaining Ser53 phospho-MCM2 vs control

structureString | dataValue
Fc1ccccc1[C@H](Nc1nnc(-c2c[nH]c3ncccc23)o1)C1CC1 | 46%
Fc1cnc2[nH]cc(-c3nnc(N[C@@H](c4cccnc4F)C4CC4)o3)c2c1 | 30%
Fc1ncccc1[C@H](Nc1nnc(-c2c[nH]c3ncccc23)o1)C1CC1 | 41%
Fc1cnccc1[C@H](Nc1nnc(-c2c[nH]c3ncccc23)o1)C1CC1 | 24%
